So I've got a bunch of molecules here, and I need their Vd values.
Assay: Volume of distribution at steady state in C57BL/6 mouse at 2 mg/kg, po and 1 mg/kg, iv
Format: ADME, organism-based
Details: in vivo, read-out: Vdss
One number for each entry, in L/kg.

List reported Vd for each of these molecules:
1. Cn1nccc1C1Cc2[nH]nc(C(=O)O)c2C1 (configuration not stated)
2. O=C(O)c1n[nH]c2c1CC(c1cc(F)cc(F)c1F)C2 (configuration not stated)

Given back:
1. 4.2
2. 9.3

----------
Assay: Plasma clearance in C57BL/6 mouse at 2 mg/kg, po and 1 mg/kg, iv
Type: ADME, organism-based
So I've got a bunch of compounds here, and I need their clearance values.
Give bare numbers, in mL/min/kg.

compound | units-symbol | clearance
Cn1nccc1C1Cc2[nH]nc(C(=O)O)c2C1 (configuration not stated) | mL/min/kg | 86

Now turn to the next compound.
Asked: Look at this compound and give its reported clearance. O=C(O)c1n[nH]c2c1CC(c1cc(F)cc(F)c1F)C2 (configuration not stated)
Given back: 24

Where do these numbers come from? They come from ChEMBL document CHEMBL1208758.
